Test system: DeltatarO mutant
experimental.details: S. aureus survival, RN4220 and DeltatarO strains – OD600, teichoic acid synthesis inhibitors, primary screen (AID 463173)
condition.description: S. aureus RN4220 wild type/DeltatarO growth, OD600, 18 h, screened at 18.75 µg/mL (by protocol)
Screen size: about 52,000 compounds; about 4,300 (8.3%) were called active. Rule as the data show it: active = survival mostly below about 52% (no sharp cut-off); inactive = mostly above about 56%. The full list was thinned out, with actives kept by preference.
Your answer must be one of the following: yes (1) = active, no (0) = inactive

Example entries begin here.
{"compound": "CCOC(=O)CSc1nc(-c2ccc(OCC)cc2)cc(C(F)(F)F)c1C#N", "class": "no (0)"}
{"compound": "O=C(CNS(=O)(=O)c1cccs1)N1CCN(c2cccc(C(F)(F)F)c2)CC1", "class": "no (0)"}
{"compound": "Oc1ccc(Nc2nc(-c3ccc(Cl)cc3)nc3ccccc23)cc1", "class": "yes (1)"}

// param item: "COCCN(C(=O)c1ccccc1)c1nnc(-c2ccncc2)s1" ; yields the recorded call
no (0)

// param item: "Cc1nnc2c(Nc3cccc(O)c3)nc3ccccc3n12" ; yields the recorded call
no (0)

// param item: "Cc1nnc2c3ccccc3nc(Nc3cccc(O)c3)n12" ; yields the recorded call
no (0)

// param item: "O=C(CNS(=O)(=O)c1ccc(Br)s1)N1CCN(c2ccc(F)cc2)CC1" ; yields the recorded call
yes (1)

Numbers sourced from PubChem BioAssay AID463173.
